Molecular target: TGFBIp611-633 G623R peptide (Homo sapiens, UniProt Q15582, G623R)
Construct: The 23-amino acid long peptide (TGFBIp 611-633 c.623 G>R) from the 4th FAS1 domain; purchased Synpeptide Co Ltd, Shanghai, China; host or cells: synthetic peptide
Sequence (Q15582 611-633 G623R limits assumed): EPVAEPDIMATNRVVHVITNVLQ
Experiment: Circular Dichroism assay (θ[218]), inhibition of amyloid fibrillation
Assay type: biochemical
Details: 200 mM, 72 h; read-out: % Inhibition (mean ± SD) n = 3, θ[218] circular dichroism
measured_parameter: inhibition at 200000 µM (%)
Express the result in % but write the number alone.

Input line: I would be grateful if you could share the reported inhibition at 200000 µM for OC[C@H]1O[C@H](OC[C@H]2O[C@H](O[C@]3(CO)O[C@H](CO)[C@@H](O)[C@@H]3O)[C@H](O)[C@@H](O)[C@@H]2O)[C@H](O)[C@@H](O)[C@H]1O .
Output line: 57

Input line: I would be grateful if you could share the reported inhibition at 200000 µM for C[N+](C)(C)CC(=O)O .
Output line: 34

* * *

Target: preformed amyloid fibrils from TGFBIp611-633 G623R peptide (Homo sapiens, UniProt Q15582, G623R)
Construct: The 23-amino acid long peptide (TGFBIp 611-633 c.623 G>R) from the 4th FAS1 domain; purchased Synpeptide Co Ltd, Shanghai, China; host or cells: synthetic peptide
Assay: Circular Dichroism assay (θ[218]), disaggregation of preformed amyloid fibrils
Type: biochemical
Conditions: 200 mM, 48 h, preformed fibrils; read-out: % Inhibition (mean ± SD) n = 3, θ[218] of preformed amyloid fibrils, circular dichroism
Procedure: Circular Dichroism (CD) spectroscopy was performed to study the disaggregation of the preformed amyloid fibrils. […] The treatment solutions were studied by far UV-CD assay. Circular Dichroism (CD) spectroscopy was performed to study the disaggregation of the preformed amyloid fibrils. The preformed amyloid fibrils were treated with taurine at a concentration of 200 mM and 320 mM in PBS buffer at pH 7.0 for 24 h, 48 h and 72 respectively. The treatment solutions were studied by far UV-CD assay.
I'd be grateful if you could share measured inhibition at 200000 µM for these entries.
Express the result in % but write the number alone.

Input line: I would be grateful if you could share the reported inhibition at 200000 µM for NCCS(=O)(=O)O [Taurine, taurine] .
Output line: 40

Input line: I would be grateful if you could share the reported inhibition at 200000 µM for CNCC(=O)O [Sarcosine, sarcosine] .
Output line: 39

Input line: I would be grateful if you could share the reported inhibition at 200000 µM for C[N+](C)(C)CC(=O)O [Betaine, betaine] .
Output line: 24

Input line: I would be grateful if you could share the reported inhibition at 200000 µM for OC[C@H]1O[C@H](OC[C@H]2O[C@H](O[C@]3(CO)O[C@H](CO)[C@@H](O)[C@@H]3O)[C@H](O)[C@@H](O)[C@@H]2O)[C@H](O)[C@@H](O)[C@H]1O [Raffinose, raffinose] .
Output line: 48

* * *

Biological target: TGFBIp611-633 G623R peptide (Homo sapiens, UniProt Q15582, G623R)
Construct: The 23-amino acid long peptide (TGFBIp 611-633 c.623 G>R) from the 4th FAS1 domain; purchased Synpeptide Co Ltd, Shanghai, China; host or cells: synthetic peptide
Assay: ThT fluorescence assay, inhibition of amyloid fibrillation
Assay type: biochemical
Conditions: 200 mM, 72 h; read-out: % Inhibition (mean ± SD) n = 3, ThT fluorescence
measured_parameter: inhibition at 200000 µM (%)
Express the result in % but write the number alone.

Input line: Lookup: inhibition at 200000 µM / TGFBIp611-633 G623R peptide (Homo sapiens, UniProt Q15582, G623R) / NCCS(=O)(=O)O
Output line: 48

Input line: Lookup: inhibition at 200000 µM / TGFBIp611-633 G623R peptide (Homo sapiens, UniProt Q15582, G623R) / OC[C@H]1O[C@H](OC[C@H]2O[C@H](O[C@]3(CO)O[C@H](CO)[C@@H](O)[C@@H]3O)[C@H](O)[C@@H](O)[C@@H]2O)[C@H](O)[C@@H](O)[C@H]1O
Output line: 65

Input line: Lookup: inhibition at 200000 µM / TGFBIp611-633 G623R peptide (Homo sapiens, UniProt Q15582, G623R) / C[N+](C)(C)CC(=O)O
Output line: 44

Input line: Lookup: inhibition at 200000 µM / TGFBIp611-633 G623R peptide (Homo sapiens, UniProt Q15582, G623R) / CNCC(=O)O
Output line: 56
